Cited source: patent US9758529B2

Tested on: mice
Assay: Neuropharmacological Assay (SmartCube)
Format: in vivo
Conditions: i.p. 15 min before behavioral test; 3 doses, most efficacious dose(s) presented
Where a name gives a salt, the structure may show the parent alone.
Recorded endpoint: MS: mood stabilizer (probability of class match)

INSERT INTO results (compound, test_target, measured_value) VALUES
  ('Cl.c1ccc2c3n(nc2c1)CCOC3[C@H]1CNCCO1 (stereo partly drawn)', 'mice', '+ (LOQ≦ + <5%)'),
  ('CCN(C)CC1OCCCn2nc3ccccc3c21.Cl (stereo not drawn)', 'mice', '+ (LOQ≦ + <5%)'),
  ('CN(CC1OCCCn2nc3ccccc3c21)C1CCC1.Cl (stereo not drawn)', 'mice', '+ (LOQ≦ + <5%)'),
  ('CCNCC1OCCn2nc3ccccc3c21.Cl (stereo not drawn)', 'mice', '+ (LOQ≦ + <5%)'),
  ('CN(C)CC1OCCn2nc3ccc(Cl)cc3c21.Cl (stereo not drawn)', 'mice', '+ (LOQ≦ + <5%)'),
  ('CN[C@H](C)[C@H]1OCCn2nc3ccccc3c21.Cl (relative stereo)', 'mice', '+ (LOQ≦ + <5%)'),
  ('CN1CCOC[C@H]1[C@H]1OCCn2nc3ccccc3c21 (racemic)', 'mice', '+ (LOQ≦ + <5%)'),
  ('CN(CC1OCCn2nc3ccccc3c21)C1CCC1.Cl (stereo not drawn)', 'mice', '+ (LOQ≦ + <5%)'),
  ('c1ccc2c3n(nc2c1)CCOC3C1CCNCC1 (stereo not drawn)', 'mice', '+ (LOQ≦ + <5%)'),
  ('CNC[C@H]1OCCn2nc3ccccc3c21.Cl', 'mice', '+ (LOQ≦ + <5%)'),
  ('CN[C@@H](C)[C@H]1OCCn2nc3ccccc3c21 (relative stereo)', 'mice', '+ (LOQ≦ + <5%)'),
  ('NCC1OCCn2nc3ccccc3c21 (stereo not drawn)', 'mice', '+ (LOQ≦ + <5%)'),
  ('CN1CCO[C@@H]([C@@H]2OCCn3nc4ccccc4c32)C1', 'mice', '+ (LOQ≦ + <5%)'),
  ('Cl.c1ccc2c3n(nc2c1)CCOC31CCNC1 (stereo not drawn)', 'mice', '+ (LOQ≦ + <5%)'),
  ('CN1CCC[C@H]1C1OCCn2nc3ccccc3c21 (stereo partly drawn) [Compound 14, hydrochloride]', 'mice', '+ (LOQ≦ + <5%)'),
  ('CNCC1OCCn2nc3ccccc3c21 (stereo not drawn)', 'mice', '+ (LOQ≦ + <5%)'),
  ('CN1CCC2(C1)OCCn1nc3ccccc3c12.Cl (stereo not drawn)', 'mice', '+ (LOQ≦ + <5%)'),
  ('CN(CC1OCCn2nc3ccccc3c21)C1CC1 (stereo not drawn)', 'mice', '+ (LOQ≦ + <5%)'),
  ('Cl.N[C@H](CC1CCC1)C1OCCn2nc3ccccc3c21 (stereo partly drawn)', 'mice', '+ (LOQ≦ + <5%)'),
  ('Cl.NCC1OCCCn2nc3ccccc3c21 (stereo not drawn)', 'mice', '+ (LOQ≦ + <5%)');
